test system: DU-145 prostate; test: NCI-60 one-dose screen, 48 h; details: 10 µM unless noted
This is part of a sample that, as a whole, favours compounds with a hit. Of some 83,000 tested, about 20% had one in any assay. The source made the active and inactive calls. How the source made its calls: active means growth percent below 10; inactive means the rest.
Reply using exactly one outcome from active, inactive

Exercise: Assay result, entry Nc1ncc(-c2ccc3ncnc(Nc4cncc(Cl)c4)c3c2)cn1 — outcome?
Key: inactive

Exercise: What is the recorded call for this molecule in the test? COc1cc(NC(=O)c2cc(OC)c3ccn(C)c3c2)cc2c1C[C@]1(C)CC[C@@H](O)C(C)(C)[C@H]1O2
Key: inactive

Exercise: Fill in: this test's call for Nc1nc(Nc2ccc(OCc3cccc(F)c3)cc2)c2c(n1)[nH]c1ccc(O)cc12 is ___
Key: inactive

Exercise: Called result for COc1ccc(-c2nnc(SCC(=O)N3CCN(c4cc5c(cc4F)c(=O)c(C(=O)O)cn5C4CC4)CC3)o2)cc1OC
Key: inactive

Exercise: GET /call?item= O=S(=O)(O)c1ccc(F)cc1 returns the recorded outcome of this test.
Key: inactive

Exercise: Hi, sorry to bother you, what did the test record for Cc1nssc1=S ?
Key: inactive

Exercise: Lab log entry: COc1ccc(-c2nn(-c3ccc(NC(=O)Nc4ccc(Cl)c(C(F)(F)F)c4)cc3)cc2-c2ccncc2)cc1Cl — outcome as called in the assay?
Key: inactive

Exercise: Status in this test for O=C(Nc1cccc(-n2ccc3c(NC(=O)c4ccccc4)nccc32)c1)c1cc(N2CCOCC2)cc(C(F)(F)F)c1 ?
Key: active

Exercise: // param item: COc1ccc(/C(=C/c2cc(OC)c(OC)c(OC)c2)[N+](=O)[O-])cc1 ; yields the recorded call
Key: inactive

Exercise: Status in this test for CN1CCN(CC(O)COc2c(Br)c(Br)c(Br)c3c2OC(C)(C)C3)CC1 (stereo unspecified) ?
Key: inactive

Exercise: # lookup: test call for CC(=O)Nc1ccc([I+]c2ccc([N+](=O)[O-])cc2)cc1
Key: inactive

Values were extracted from PubChem BioAssay (NCI).
